# ASSAYED SYSTEM: Parathyroid hormone/parathyroid hormone-related peptide receptor (Homo sapiens, UniProt Q03431)
# Sequence (Q03431 whole entry): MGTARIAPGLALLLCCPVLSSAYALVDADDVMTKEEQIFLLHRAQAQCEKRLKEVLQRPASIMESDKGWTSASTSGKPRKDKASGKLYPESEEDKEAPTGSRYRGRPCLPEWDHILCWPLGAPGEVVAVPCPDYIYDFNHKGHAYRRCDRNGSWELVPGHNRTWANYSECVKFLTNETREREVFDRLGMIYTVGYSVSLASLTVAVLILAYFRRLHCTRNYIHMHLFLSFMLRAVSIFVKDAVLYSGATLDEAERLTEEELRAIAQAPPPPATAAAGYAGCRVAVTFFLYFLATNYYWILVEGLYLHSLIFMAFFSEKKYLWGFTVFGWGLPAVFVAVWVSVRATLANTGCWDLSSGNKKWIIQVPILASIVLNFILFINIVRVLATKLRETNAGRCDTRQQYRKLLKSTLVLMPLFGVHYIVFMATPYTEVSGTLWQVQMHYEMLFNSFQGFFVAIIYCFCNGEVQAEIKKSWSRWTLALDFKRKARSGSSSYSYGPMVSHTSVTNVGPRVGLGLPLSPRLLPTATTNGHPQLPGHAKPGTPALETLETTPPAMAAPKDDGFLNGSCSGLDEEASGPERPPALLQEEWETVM
# TEST DESCRIPTION: Antagonist activity at PTH/PTH-related peptide receptor expressed in HKRK-B28 cells assessed as inhibition of DPC-AJ1951-induced cAMP production
# Assay type: functional, cell-based
OBSERVATION TYPE: pIC50
Just the number, please; pIC50 means minus log10 of the concentration in mol/L.

[ask] Record request: pIC50 value, item CC[C@@H]1O[C@](/C=C/C2CC2)(C(F)(F)F)c2c(ccc(F)c2F)NC1=O
[reply] 5.24

###

# ASSAYED SYSTEM: Parathyroid hormone/parathyroid hormone-related peptide receptor (Rattus norvegicus, UniProt P25961)
# Sequence (P25961 whole entry): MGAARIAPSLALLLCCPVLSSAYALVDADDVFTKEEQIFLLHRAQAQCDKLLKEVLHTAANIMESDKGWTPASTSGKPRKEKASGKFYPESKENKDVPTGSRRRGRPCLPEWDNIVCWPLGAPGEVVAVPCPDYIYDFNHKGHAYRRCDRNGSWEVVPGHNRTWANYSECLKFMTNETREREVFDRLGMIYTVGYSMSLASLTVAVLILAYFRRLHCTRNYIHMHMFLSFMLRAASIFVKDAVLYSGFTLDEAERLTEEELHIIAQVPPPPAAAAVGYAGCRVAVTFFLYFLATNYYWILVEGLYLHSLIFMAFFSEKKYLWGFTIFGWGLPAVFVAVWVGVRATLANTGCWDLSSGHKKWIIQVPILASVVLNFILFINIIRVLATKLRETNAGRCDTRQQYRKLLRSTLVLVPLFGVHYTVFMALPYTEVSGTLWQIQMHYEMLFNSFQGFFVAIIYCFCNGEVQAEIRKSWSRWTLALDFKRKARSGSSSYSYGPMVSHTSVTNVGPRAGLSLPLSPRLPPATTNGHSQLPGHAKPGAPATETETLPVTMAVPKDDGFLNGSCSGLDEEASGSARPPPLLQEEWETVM
# TEST DESCRIPTION: Activity at rat PTH/PTH-related peptide receptor expressed in rat UMR106 cells assessed as cAMP formation
Square brackets hold non-standard residues; d marks the D form. Peptide text beside a SMILES is read from it. * marks the point of attachment. X1 = O=C(c1ccccc1-c1c2ccc(=O)cc-2oc2cc(O)ccc12)*; hArg = N=C(N)NCCCC[C@H](N)C(=O)O; Nle = CCCC[C@H](N)C(=O)O; Aib = CC(C)(N)C(=O)O
Task for the reader: assign each of the following compounds its reported EC50.
Answer as a quantity: numeral, then unit.

[ask] Record request: EC50 value, item CC[C@H](C)[C@H](NC(=O)[C@H](CCC(=O)O)NC(=O)[C@H](C)NC(=O)[C@@H](NC(=O)[C@H](C)N)C(C)C)C(=O)N[C@@H](CCC(N)=O)C(=O)N[C@@H](CC(C)C)C(=O)N[C@@H](CCSC)C(=O)N[C@@H](Cc1cnc[nH]1)C(=O)N[C@@H](CCC(N)=O)C(=O)N[C@@H](CCCCN=C(N)N)C(=O)N[C@@H](C)C(=O)N[C@@H](CCCCN)C(=O)N[C@@H](Cc1c[nH]c2ccccc12)C(N)=O (H-AVAEIQLMHQ[hArg]AKW-NH2)
[reply] 155 nM

[ask] Item: CCCC[C@H](NC(=O)[C@H](CC(C)C)NC(=O)[C@H](CCC(N)=O)NC(=O)[C@@H](NC(=O)[C@H](CCC(=O)O)NC(=O)C(C)(C)NC(=O)[C@@H](NC(=O)C(C)(C)N)C(C)C)[C@@H](C)CC)C(=O)N[C@@H](Cc1cnc[nH]1)C(=O)N[C@@H](CCC(N)=O)C(=O)N[C@@H](CCCNC(=N)N)C(=O)N[C@@H](C)C(=O)N[C@@H](CCCCN)C(=O)N[C@@H](Cc1ccc(O)cc1)C(N)=O (H-[Aib]V[Aib]EIQL[Nle]HQRAKY-NH2)
[reply] 1.1 nM

[ask] Item: CCCC[C@H](NC(=O)[C@H](CC(C)C)NC(=O)[C@H](CCC(N)=O)NC(=O)[C@@H](NC(=O)[C@H](CCC(=O)O)NC(=O)[C@H](C)NC(=O)[C@@H](NC(=O)[C@H](C)N)C(C)C)[C@@H](C)CC)C(=O)N[C@@H](Cc1cnc[nH]1)C(=O)N[C@@H](CCC(N)=O)C(=O)N[C@@H](CCCCNC(=N)N)C(=O)N[C@@H](C)C(=O)N[C@@H](CCCCN)C(=O)N[C@@H](Cc1c[nH]c2ccccc12)C(=O)N[C@@H](Cc1ccc(O)cc1)C(N)=O (H-AVAEIQL[Nle]HQ[hArg]AKWY-NH2)
[reply] 129 nM

[ask] Item: CC[C@H](C)[C@H](NC(=O)[C@H](CCC(=O)O)NC(=O)[C@H](C)NC(=O)[C@@H](NC(=O)[C@H](C)N)C(C)C)C(=O)N[C@@H](CCC(N)=O)C(=O)N[C@@H](CC(C)C)C(=O)N[C@@H](CCSC)C(=O)N[C@@H](Cc1cnc[nH]1)C(=O)N[C@@H](CCC(N)=O)C(=O)N[C@@H](CCCCNC(=N)N)C(=O)N[C@@H](C)C(=O)N[C@@H](CCCCN)C(=O)N[C@@H](Cc1c[nH]c2ccccc12)C(=O)N[C@@H](CCCCNC(=O)c1ccccc1-c1c2ccc(=O)cc-2oc2cc(O)ccc12)C(N)=O (H-AVAEIQLMHQ[hArg]AKWK(X1)-NH2)
[reply] 251 nM

[ask] Item: CCCC[C@H](NC(=O)[C@H](CC(C)C)NC(=O)[C@H](CCC(N)=O)NC(=O)[C@@H](NC(=O)[C@H](CCC(=O)O)NC(=O)[C@H](C)NC(=O)[C@@H](NC(=O)[C@H](C)N)C(C)C)[C@@H](C)CC)C(=O)N[C@@H](Cc1cnc[nH]1)C(=O)N[C@@H](CCC(N)=O)C(=O)N[C@@H](CCCCNC(=N)N)C(=O)N[C@@H](C)C(=O)N[C@@H](CCCCN)C(=O)N[C@@H](Cc1ccc(O)cc1)C(N)=O (H-AVAEIQL[Nle]HQ[hArg]AKY-NH2)
[reply] 344 nM
